Target: UniProt:P19024
Sequence (P19024 whole entry): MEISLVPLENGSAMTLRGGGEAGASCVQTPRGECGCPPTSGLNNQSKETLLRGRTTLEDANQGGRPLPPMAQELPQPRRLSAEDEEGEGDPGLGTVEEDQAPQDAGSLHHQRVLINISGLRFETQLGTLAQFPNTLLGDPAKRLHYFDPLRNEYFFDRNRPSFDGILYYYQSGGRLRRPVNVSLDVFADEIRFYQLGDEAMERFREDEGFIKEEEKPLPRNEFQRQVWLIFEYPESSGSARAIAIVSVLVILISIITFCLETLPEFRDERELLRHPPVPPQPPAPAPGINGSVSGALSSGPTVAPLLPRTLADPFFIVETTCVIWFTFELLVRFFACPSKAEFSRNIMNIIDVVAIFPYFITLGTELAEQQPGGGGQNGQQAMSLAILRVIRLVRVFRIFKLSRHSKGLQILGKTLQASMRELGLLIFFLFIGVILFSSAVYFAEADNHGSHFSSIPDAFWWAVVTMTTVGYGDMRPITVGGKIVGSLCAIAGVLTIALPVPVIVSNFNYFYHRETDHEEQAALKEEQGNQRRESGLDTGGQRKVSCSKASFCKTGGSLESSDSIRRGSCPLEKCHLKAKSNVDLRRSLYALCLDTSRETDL
Assay: whole-cell patch clamp of CHO cells overexpressing Kv1.[…]
Entries annotated with measured IC50
Kindly answer with a numeric value in µM, unit omitted.

Recorded results for 2 molecules are shown here.
Lookup: Identify the reported IC50 for the following entry. C[C@]12N[C@H](Cc3ccccc31)c1ccccc12 [(+) MK801]
Found: 157

Lookup: Identify the reported IC50 for the following entry. CNC1(c2ccccc2Cl)CCCCC1=O (racemic)
Found: 641

Okay, now this molecule:
Lookup: Identify the reported IC50 for the following entry. C[C@@]12N[C@@H](Cc3ccccc31)c1ccccc12 [(−) MK801]
Found: 157
